system name: T1, thermostable variant of Streptomyces mobaraensis transglutaminase (Streptomyces mobaraensis, UniProt P81453 79-407)
T1 sequence: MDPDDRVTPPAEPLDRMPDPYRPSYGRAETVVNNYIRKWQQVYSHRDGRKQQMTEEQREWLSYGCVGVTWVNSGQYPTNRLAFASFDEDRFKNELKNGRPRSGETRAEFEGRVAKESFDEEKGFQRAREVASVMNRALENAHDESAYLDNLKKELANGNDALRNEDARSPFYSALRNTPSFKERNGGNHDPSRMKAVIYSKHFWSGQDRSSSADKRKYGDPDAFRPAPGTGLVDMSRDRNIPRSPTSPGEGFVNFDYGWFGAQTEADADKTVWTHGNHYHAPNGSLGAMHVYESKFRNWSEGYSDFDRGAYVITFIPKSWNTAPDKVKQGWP
protocol description: cell-based or functional assay
parameter: Improvement in pH responsiveness of inhibitory peptide relative to WT

Use the examples below as a reference point.
# binder, reported result
rows = [
    ("MDNGAGELTKSYAETYRLTADDVANINALNESAPAASSAGPSFRAP [pro-peptide variant E8L]", "> 1.2 fold"),
    ("MDNGAGEEGKSYAETYRLTADDVANINALNESAPAASSAGPSFRAP [pro-peptide variant T9G]", "> 1.2 fold"),
    ("MDNGAGEETKSYAETYRLTADDVANINALNESAPAAS [pro-peptide truncation variant ΔS38-P46]", "> 1.2 fold"),
]

Could you share which Improvement in pH responsiveness of inhibitory peptide relative to WT value was measured for MDNGAGEETKSYAETYRLTADDVHNINALNESAPAASSAGPSFRAP [pro-peptide variant A24H] ?
> 5 fold

Could you share which Improvement in pH responsiveness of inhibitory peptide relative to WT value was measured for MDNGAGEETKSYAETYRLTAMDVANINALNESAPAASSAGPSFRAP [pro-peptide variant D21M] ?
> 5 fold

Could you share which Improvement in pH responsiveness of inhibitory peptide relative to WT value was measured for MDNGAGEETKSYAEVYRLTADDVANINALNESAPAASSAGPSFRAP [pro-peptide variant T15V] ?
> 1.2 fold
